Provenance of the data: paper PMC9482650

target: PARD3_3, Q8TEW0; assay: holdup assay; parameters: key: below the threshold = too weak to quantify, mostly under pKd 3.1 to 4; conditions: plain residues with an end cap or a label only (N-terminal biotin on a linker: ado-ado)
Sequence (Q8TEW0 582-685): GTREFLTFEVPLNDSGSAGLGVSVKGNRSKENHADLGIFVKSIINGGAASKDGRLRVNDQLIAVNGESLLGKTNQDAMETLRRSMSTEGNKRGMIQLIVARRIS
Quantity Measured: pKd

The cases that follow already have their pKd on record.
What does the data say about its pKd? Entry: ELSATVTTDC [TRIP6, Q15654]
below the threshold

Quick one: SRSVVESDEL [MYPN, Q86TC9]
below the threshold

Try this binder too: QKAPTKEFYA [SDC2, P34741]
below the threshold

And GEDRSPPTAL [MKNK1, Q9BUB5] ?
below the threshold

Now consider NIAESLESLV [PTPRZ1, P23471] and answer again.
4.18

Hey, can you go through the list below and give me pKd for every item?
1. DTKNYKQTSV [CRIPT, Q9P021]
2. SFISKKEWYV [NECTIN1, Q15223]

1. below the threshold
2. 4.53

Entry LPAVCYDIDI [PTTG2, Q9NZH5] has what pKd?
4.29
